Tested on: monoclonal antibody 1E2
Assay: ACMIA cross-reactivity / binding of tacrolimus derivatives to monoclonal antibody 1E2
Set-up: species or system mouse
Settings: ACMIA format, 1E2-β-galactosidase conjugate, tacrolimus C32 fluorescein derivative chrome particles
experimental-endpoint: binding to monoclonal antibody 1E2

compound="C=CCC1C=C(C)CC(C)CC(OC)C2OC(O)(C(=O)C(=O)N3CCCCC3C(=O)OC(C(C)=CC3CCC(O)C(O)C3)C(C)C(O)CC1=O)C(C)CC2O (stereo not shown) [MVI, 13,31-O-didesmethyl-tacrolimus]" assay_result="removed the binding"
compound="C=CCC1C=C(C)CC(C)CC(OC)C2OC(O)(C(=O)C(=O)N3CCCCC3C(=O)OC(C(C)=CC3CCC(O)C(OC)C3)C(C)C(O)CC1=O)C(C)CC2O (stereo not shown) [M1, 13-O-desmethyl-tacrolimus]" assay_result="removed the binding"

From: patent US8586322B2
